Every entry's value here was drawn from PubChem BioAssay AID290.

# key: entry, value: T/C
Tested on: mice, P1798 lymphosarcoma sc, survival or tumor weight T/C
TEST DETAILS: NCI In Vivo Anticancer Drug Screen. Data for tumor model P1798 Lymphosarcoma (subcutaneous) in unknown mice
CONDITION PARAMETERS: endpoint: mean tumor weight; dose: 50.0 mg/kg/injection; schedule: Q01DX010 (ip); vehicle: carboxymethylcellulose (CMC); higher = larger tumour
Protocol: The antitumor activity of compounds was measured in mice bearing transplantable tumors. Survival or tumor size were measured and the results are expressed as the measurement made in the treated group (T) divided by the measurement made in the vehicle treated control group (C). The tumor model used in this assay is P1798 Lymphosarcoma (subcutaneous) in unknown mice
Inconclusive results are not listed.
OBSERVED PROPERTY: T/C

- O=c1[nH]c2cc(Cl)c(Cl)cc2o1: 117 % of control
- CCCCn1cnc2c(=S)nc[nH]c21: 78 % of control
- O=c1[nH]c(=O)n(C2CC(O)C(CO)O2)cc1F (stereo not drawn): 30 % of control
- CN(C)c1ccc(Nc2c3ccccc3nc3ccccc23)cc1: 10 % of control
- CSc1ncnc2nc[nH]c12: 61 % of control
- N#CCSc1ncnc2nc[nH]c12: 46 % of control
- CS(=O)(=O)OCCCl: 88 % of control
- CC(C)(c1ccccc1)c1ccc(O)cc1: 91 % of control
